For each record, write down the corresponding EC50.
Target: T1, human CCR8 (human, UniProt P51685 1-355)
T1 construct: whole, on cells; In the β-arrestin assay CCR8 is fused to the ProLink (PK) tag; also called hCCR8; CHO-K1-human CCR8
T1 sequence (P51685 whole entry, the tested form may be a part): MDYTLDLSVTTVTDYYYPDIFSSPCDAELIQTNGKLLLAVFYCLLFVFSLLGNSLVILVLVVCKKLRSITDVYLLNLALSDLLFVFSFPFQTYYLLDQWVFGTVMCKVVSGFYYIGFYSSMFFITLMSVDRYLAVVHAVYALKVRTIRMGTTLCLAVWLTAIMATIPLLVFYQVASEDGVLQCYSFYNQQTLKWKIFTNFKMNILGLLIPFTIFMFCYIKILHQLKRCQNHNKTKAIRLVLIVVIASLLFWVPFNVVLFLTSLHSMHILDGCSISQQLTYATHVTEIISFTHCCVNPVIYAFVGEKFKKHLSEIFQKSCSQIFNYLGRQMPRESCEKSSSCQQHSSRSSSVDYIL
Assay: FACS on CHO-K1-human CCR8 cells
Give your result in nM as a bare value.

Query :: Give the measured EC50 for 204A2G12 (antibody, V domains shown, Murine hybridoma antibody) VH: DVQLQESGPGLVKPSQSLSLTCSVTGYSITSGYYWNWIRQFPGNKLEWMGYISYDGTNNYNPSLKNRISITRDTSKNQFFLKLTSVTTEDTATYYCARQVGLRRAWFAYWGQGTLVTVSA VL: DIQMTQSSSFLSVSLGGRVTITCKASDHINYWLAWYQQKPGNAPRLLISGATSLETGVPSRFSGSGSGKDYTLTITSLQNEDVATYYCHQYWSTPTFGSGTKLEIK
Result :: 0.334

Query :: Give the measured EC50 for 191E12H8 (antibody, V domains shown, Murine hybridoma antibody) VH: DVQLQESGPGLVKPSQSLSLTCSVTGYSITSGYYWNWIRQFPGNKLEWMGYISYDGSNNYNPSLKNRISITRDISKNQFFLKLNSVTTEDTATYYCARQIGLRRGAMDYWGQGTSVTVSS VL: DIQMTQSSSYLSVSLGGRVTITCKASDHINTWLAWYQQKPGNAPRLLISGSTSLKAGVASRFSGSGSGKDYTLTITSLQTEDVATYYCQQYWGIPFTFGGGTKLEIK
Result :: 2.25

Query :: Give the measured EC50 for 153D4G2 (antibody, V domains shown, Murine hybridoma antibody; also called 153D3G2; 1531D4G2) VH: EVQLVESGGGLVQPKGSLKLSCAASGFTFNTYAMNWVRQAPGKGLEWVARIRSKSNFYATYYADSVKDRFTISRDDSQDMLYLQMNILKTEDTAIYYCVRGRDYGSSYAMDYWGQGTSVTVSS VL: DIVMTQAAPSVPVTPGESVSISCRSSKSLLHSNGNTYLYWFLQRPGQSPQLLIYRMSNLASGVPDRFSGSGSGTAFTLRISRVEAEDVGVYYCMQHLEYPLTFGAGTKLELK
Result :: 0.64

Query :: Give the measured EC50 for 348E2D11 (antibody, V domains shown, Murine hybridoma antibody) VH: QVQLVETGGGLVRPGNSLKLSCVTSGFSFSNYRMHWLRQPPGKRLEWIAVITVKSDNYGANYAESVKGRFTISRDDSKSSVYLQMNRLREEDTATYYCSSLGRVAYWGQGTLVTVSA VL: DIVMTQSQKFMFTSVGDRVSVTCKASQNVDTNVVWYQQKPGQSPKALIYSASSRYSGVPDRFTGSGSGTDFTLTISNVQSEDLAEYFCQQHNSFPLTFGAGTKLELI
Result :: 0.397

Query :: Give the measured EC50 for 160D1E3 (antibody, V domains shown, Murine hybridoma antibody) VH: EVQLVESGGGLVQPKGSLKLSCAASGFTFNTYAMNWVRQAPGKGLEWVARIRSKSNYYATYYADSVKDRFTISRDDSQDMLYLQMNNLKTEDTAIYYCVRGRDYGSSYAMDYWGQGTSVTVSS VL: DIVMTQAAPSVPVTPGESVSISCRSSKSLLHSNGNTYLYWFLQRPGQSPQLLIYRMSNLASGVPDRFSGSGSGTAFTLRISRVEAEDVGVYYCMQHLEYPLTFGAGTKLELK
Result :: 0.456
